Value source: patent US7763615B2

- Test system: HT29
- Assay method text: cells
- Format: cell-based
- Measurement setup: Homo sapiens, HT-29, 48 h, HT29, 48 hours exposure, SRB
Each record's class is read off its IC (TGI) using these ranges: low: < 0.06 µM; intermediate: ≥ 0.06 µM and < 6 µM; high: ≥ 6 µM

Compound | Target or test system | Label class
COc1c(C)cc2c(c1O)[C@@H]1C3[C@@H]4SC[C@]5(NCCc6c5[nH]c5ccc(OCc7ccccc7)cc65)C(=O)COC[C@@H](c5c6c(c(C)c(OC(C)=O)c54)OCO6)N3[C@@H](C#N)[C@H](C2)N1C (stereo partly drawn) | HT29 | intermediate
COc1c(C)cc2c(c1O)[C@@H]1C3[C@@H]4SC[C@]5(NCCc6c5[nH]c5cc(F)ccc65)C(=O)COC[C@@H](c5c6c(c(C)c(OC(C)=O)c54)OCO6)N3[C@@H](C#N)[C@H](C2)N1C (stereo partly drawn) | HT29 | intermediate
C=COC(=O)Oc1c(OC)c(C)cc2c1[C@@H]1C3[C@@H]4SC[C@]5(C(=O)COC[C@@H](c6c7c(c(C)c(OC(C)=O)c64)OCO7)N3[C@@H](C#N)[C@H](C2)N1C)c1[nH]c2ccccc2c1CCN5C(=O)OC=C (stereo partly drawn) | HT29 | high
CCCCCCCC(=O)Oc1c(C)c2c(c3c1[C@H]1SC[C@]4(NCCc5c4[nH]c4ccccc54)C(=O)COC[C@@H]3N3C1[C@H]1c4c(cc(C)c(OC)c4O)C[C@@H]([C@@H]3C#N)N1C)OCO2 (stereo partly drawn) | HT29 | high
COc1c(C)cc2c(c1O)[C@@H]1C3[C@@H]4SC[C@]5(NCCc6c5[nH]c5c(OCc7ccccc7)cccc65)C(=O)COC[C@@H](c5c6c(c(C)c(OC(C)=O)c54)OCO6)N3[C@@H](O)[C@H](C2)N1C (stereo partly drawn) | HT29 | intermediate
C=COC(=O)Oc1c(OC)c(C)cc2c1[C@@H]1C3[C@@H]4SC[C@]5(NCCc6c5[nH]c5ccccc65)C(=O)COC[C@@H](c5c6c(c(C)c(OC(C)=O)c54)OCO6)N3[C@@H](C#N)[C@H](C2)N1C (stereo partly drawn) | HT29 | intermediate
COc1c(C)cc2c(c1O)[C@@H]1C3[C@@H]4SC[C@]5(NCCc6c5[nH]c5cc(F)ccc65)C(=O)COC[C@@H](c5c6c(c(C)c(OC(C)=O)c54)OCO6)N3[C@@H](O)[C@H](C2)N1C (stereo partly drawn) | HT29 | low
COc1c(C)cc2c(c1O)[C@@H]1C3[C@@H]4SC[C@]5(NC(C)Cc6c5[nH]c5ccc(O)cc65)C(=O)COC[C@@H](c5c6c(c(C)c(OC(C)=O)c54)OCO6)N3[C@@H](O)[C@H](C2)N1C (stereo partly drawn) | HT29 | low
C=COC(=O)Oc1c(C)c2c(c3c1[C@H]1SC[C@]4(NCCc5c4[nH]c4ccccc54)C(=O)COC[C@@H]3N3C1[C@H]1c4c(cc(C)c(OC)c4O)C[C@@H]([C@@H]3O)N1C)OCO2 (stereo partly drawn) | HT29 | intermediate
